Measured values drawn from patent US20220332795A1 for this set.

- Subject of test: T1, CD71 apical domain (UniProt P02786 189-383, limits assumed)
- T1 construct: domain: Apical domain
- Assay text: solution ELISA
Outcome measure: Apical domain, RLU (RLU)

{"Binder": "SEQ ID NO 143 (designed binder, FN3 domain) MLPAPKNLVVSRVTEDSARLSWTAPDAAFDSFYIAYAEPRPDGEAILLFVPGSERSYDLTGLKPGTEYSVLIHGVKGGLLSSPLVAHFTT", "Outcome measure": "Apical domain, RLU", "Readout value": "7.51e+06"}
{"Binder": "SEQ ID NO 192 (designed binder, FN3 domain) MLPAPKNLVVSRVTEDSARLSWTAPDAAFDSFDIGYTEYGGYGEAIYLSVPGSERSYDLTGLKPGTEYWVLIQGVKGGGSSVPLSAIFTT", "Outcome measure": "Apical domain, RLU", "Readout value": "7.58e+06"}
{"Binder": "SEQ ID NO 128 (designed binder, FN3 domain) MLPAPKNLVVSRVTEDSARLSWTAPDAAFDSFYIAYAEPRPDGEAIVLRVPGSERSYDLTGLKPGTEYSVLIHGVKGGLLSSPLIASFTT", "Outcome measure": "Apical domain, RLU", "Readout value": "7.41e+06"}
{"Binder": "SEQ ID NO 182 (designed binder, FN3 domain) MLPAPKNLVVSRVTEDSARLSWTAPDAAFDSFYIAYAEPRPDGEAIDLHVPGSERSYDLTGLKPGTEYSVLIHGVKGGLLSSPLHALFTT", "Outcome measure": "Apical domain, RLU", "Readout value": "2.84e+06"}
{"Binder": "SEQ ID NO 117 (designed binder, FN3 domain) MLPAPKNLVVSRVTEDSARLSWTAPDAAFDSFYIAYAEPRPDGEAITLDVPGSERSYDLTGLKPGTEYSVLIHGVKGGLLSSPLSAIFTT", "Outcome measure": "Apical domain, RLU", "Readout value": "5.36e+06"}
{"Binder": "SEQ ID NO 134 (designed binder, FN3 domain) MLPAPKNLVVSRVTEDSARLSWTAPDAAFDSFYIAYAEPRPDGEAIGLQVPGSERSYDLTGLKPGTEYSVLIHGVKGGLLSSPLSAIFTT", "Outcome measure": "Apical domain, RLU", "Readout value": "5.39e+06"}

P. SEQ ID NO 141 (designed binder, FN3 domain) MLPAPKNLVVSRVTEDSARLSWTAPDAAFDSFYIAYAEPRPDGEAIFLGVPGSERSYDLTGLKPGTEYSVLIHGVKGGLLSSPLIAFFTT
Q. SEQ ID NO 130 (designed binder, FN3 domain) MLPAPKNLVVSRVTEDSARLSWTAPDAAFDSFVIEYFEWTLNGEAIVLTVPGSERSYDLTGLKPGTEYSVQIYGVKGGCLSRPLSAIFTT
### Prompt Pick the one with the larger Apical domain, RLU: P vs Q Answer by quoting the chosen item's label.
### Response P

a. SEQ ID NO 156 (designed binder, FN3 domain) MLPAPKNLVVSRVTEDSARLSWTAPDAAFDSFYIAYAEPRPDGEAIFLQVPGSERSYDLTGLKPGTEYSVLIHGVKGGLLSSPLAAVFTT
b. SEQ ID NO 115 (designed binder, FN3 domain) MLPAPKNLVVSRVTEDSARLSWTAPDAAFDSFYIAYAEPRPDGEAIELHVPGSERSYDLTGLKPGTEYSVLIHGVKGGLLSSPLFTT
### Prompt Pick the one with the larger Apical domain, RLU: a vs b Answer by quoting the chosen item's label.
### Response a
(a: 6.71e+06 RLU, b: 150000 RLU)

I. SEQ ID NO 164 (designed binder, FN3 domain) MLPAPKNLVVSRVTEDSARLSWTAPDAAFDSFYIAYAEPRPDGEAIILRVPGSERSYDLTGLKPGTEYSVLIHGVKGGLLSSPLVAIFTT
II. SEQ ID NO 139 (designed binder, FN3 domain) MLPAPKNLVVSRVTEDSARLSWTAPDAAFDSFFIGYLEPQPPGEAIQLGVPGSERSYDLTGLKPGTEYNVTIQGVKGGFPSHPLNANFTT
### Prompt Pick the one with the larger Apical domain, RLU: I vs II Answer by quoting the chosen item's label.
### Response I
(I: 8.42e+06 RLU, II: 1.86e+06 RLU)

A. SEQ ID NO 158 (designed binder, FN3 domain) MLPAPKNLVVSRVTEDSARLSWTAPDAAFDSFYIAYAEPRPDGEAIILQVPGSERSYDLTGLKPGTEYSVLIHGVKGGLLSSPLSAVFTT
B. SEQ ID NO 150 (designed binder, FN3 domain) MLPAPKNLVVSRVTEDSARLSRTAPDAAFDSFYIAYAEPRPDGEAIVLIVPGSERSYDLTGLKPGTEYSVLIHGVKGGLLSSPLSAIFTT
### Prompt Pick the one with the larger Apical domain, RLU: A vs B Answer by quoting the chosen item's label.
### Response A
